TGT: recombinant human ACE2 (rhACE2) (Homo sapiens, UniProt Q9BYF1)
Construct: recombinant human ACE2 from Calbiochem for the constants
Sequence (Q9BYF1 18-740 limits assumed): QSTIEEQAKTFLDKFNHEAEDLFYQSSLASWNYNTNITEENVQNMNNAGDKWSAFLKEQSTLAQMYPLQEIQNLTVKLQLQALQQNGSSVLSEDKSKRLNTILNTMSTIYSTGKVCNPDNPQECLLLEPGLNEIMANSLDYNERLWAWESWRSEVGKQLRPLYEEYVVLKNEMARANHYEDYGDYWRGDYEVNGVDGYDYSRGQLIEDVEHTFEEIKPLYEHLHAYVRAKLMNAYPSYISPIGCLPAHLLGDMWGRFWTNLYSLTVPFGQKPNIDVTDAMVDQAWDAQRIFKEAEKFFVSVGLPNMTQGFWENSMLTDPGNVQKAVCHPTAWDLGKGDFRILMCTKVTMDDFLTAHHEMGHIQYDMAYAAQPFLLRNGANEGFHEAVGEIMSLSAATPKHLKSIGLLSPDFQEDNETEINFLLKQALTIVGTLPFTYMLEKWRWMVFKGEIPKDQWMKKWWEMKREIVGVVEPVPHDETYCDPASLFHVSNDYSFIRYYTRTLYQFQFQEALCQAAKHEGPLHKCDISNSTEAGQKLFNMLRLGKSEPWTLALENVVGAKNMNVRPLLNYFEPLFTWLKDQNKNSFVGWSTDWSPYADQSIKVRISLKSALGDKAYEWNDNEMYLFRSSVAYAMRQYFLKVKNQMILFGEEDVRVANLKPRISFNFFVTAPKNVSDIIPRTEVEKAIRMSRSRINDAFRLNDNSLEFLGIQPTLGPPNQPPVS
ASSAY: fluorogenic peptide hydrolysis assay
pIC50: −log10 of the molar value.

| ITEM_SMILES | TGT | pIC50 |
| --- | --- | --- |
| CC(C)C[C@H](N[C@@H](Cc1cncn1Cc1cc(Cl)cc(Cl)c1)C(=O)O)C(=O)O | recombinant human ACE2 (rhACE2) (Homo sapiens, UniProt Q9BYF1) | 9.47 |

----------
Tested on: B38-CAP
Construct: no tag mentioned
ASSAY: fluorogenic peptide hydrolysis assay
Assay type: biochemical, Paenibacillus sp. B38
CONDITION_DESCRIPTION: pH 7.5 HEPES, 0.3 M NaCl, 0.01% Triton X-100, 37 °C, 30 min; fluorogenic ACE2 substrate
pIC50: −log10 of the molar value.
READOUT_KIND: pIC50

| ITEM_SMILES | READOUT_KIND | VALUE_OBSERVED |
| --- | --- | --- |
| CC(C)C[C@H](N[C@@H](Cc1cncn1Cc1cc(Cl)cc(Cl)c1)C(=O)O)C(=O)O | pIC50 | 9.15 |
